# testMethodNotes: Plasma pharmacokinetics in NHP, 30 mg/kg oral for 7 days
# Assay type: in vivo
# particulars: both sexes, monkey, oral 30 mg/kg daily for 7 days, average male and female
measurementType: Cmax (ng/mL)

{"compound": "Cc1cnc(C(C)(C)C(=O)NCc2cc(Cl)c(C3CCC(=O)NC3=O)c(Cl)c2)nc1 (stereo not shown)", "measuredValue": 6600}

----------
# targetDesc: CRBN-DDB1 (Homo sapiens (Human))
# Sequence (Q96SW2 whole entry): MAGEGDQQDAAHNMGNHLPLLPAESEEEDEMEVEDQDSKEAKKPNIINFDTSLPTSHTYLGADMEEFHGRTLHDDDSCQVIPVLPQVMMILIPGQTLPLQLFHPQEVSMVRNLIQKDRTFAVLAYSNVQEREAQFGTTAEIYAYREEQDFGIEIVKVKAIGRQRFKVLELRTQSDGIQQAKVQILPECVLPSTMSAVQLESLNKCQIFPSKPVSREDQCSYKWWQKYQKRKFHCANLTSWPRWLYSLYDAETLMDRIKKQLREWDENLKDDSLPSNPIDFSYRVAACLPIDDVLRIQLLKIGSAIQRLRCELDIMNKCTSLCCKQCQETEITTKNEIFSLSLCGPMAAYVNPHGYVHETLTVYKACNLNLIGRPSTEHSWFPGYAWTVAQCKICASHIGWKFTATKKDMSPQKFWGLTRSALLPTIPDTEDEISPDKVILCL
# Sequence (Q16531 whole entry partner): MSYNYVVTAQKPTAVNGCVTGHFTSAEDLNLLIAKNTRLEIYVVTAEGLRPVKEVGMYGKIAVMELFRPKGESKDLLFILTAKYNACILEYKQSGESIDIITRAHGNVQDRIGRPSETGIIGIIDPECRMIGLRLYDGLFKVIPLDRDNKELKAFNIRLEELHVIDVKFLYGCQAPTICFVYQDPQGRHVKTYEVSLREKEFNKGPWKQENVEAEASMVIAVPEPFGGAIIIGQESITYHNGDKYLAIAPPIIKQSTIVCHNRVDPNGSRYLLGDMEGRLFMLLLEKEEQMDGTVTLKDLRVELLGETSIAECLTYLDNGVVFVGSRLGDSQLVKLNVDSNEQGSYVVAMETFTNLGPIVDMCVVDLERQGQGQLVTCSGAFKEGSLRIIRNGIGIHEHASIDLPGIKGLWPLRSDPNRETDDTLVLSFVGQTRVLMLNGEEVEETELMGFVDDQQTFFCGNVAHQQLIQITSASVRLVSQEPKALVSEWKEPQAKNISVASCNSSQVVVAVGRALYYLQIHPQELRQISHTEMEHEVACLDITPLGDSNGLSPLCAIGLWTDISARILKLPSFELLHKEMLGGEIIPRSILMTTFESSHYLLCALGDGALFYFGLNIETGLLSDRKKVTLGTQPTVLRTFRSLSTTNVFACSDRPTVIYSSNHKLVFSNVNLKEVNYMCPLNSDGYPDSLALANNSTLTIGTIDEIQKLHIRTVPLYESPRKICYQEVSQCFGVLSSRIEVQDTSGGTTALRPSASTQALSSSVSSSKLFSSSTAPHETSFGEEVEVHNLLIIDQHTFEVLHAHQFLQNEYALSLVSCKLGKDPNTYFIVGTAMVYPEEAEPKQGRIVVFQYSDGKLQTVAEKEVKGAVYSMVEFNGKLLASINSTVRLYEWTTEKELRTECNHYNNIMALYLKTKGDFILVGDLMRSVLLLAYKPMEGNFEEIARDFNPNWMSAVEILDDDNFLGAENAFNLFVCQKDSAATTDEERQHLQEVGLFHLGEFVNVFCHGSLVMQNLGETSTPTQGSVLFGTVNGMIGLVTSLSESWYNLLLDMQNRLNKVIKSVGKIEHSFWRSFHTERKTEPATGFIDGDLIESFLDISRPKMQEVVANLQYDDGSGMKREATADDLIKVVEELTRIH
# testMethodNotes: Compound binding to CRBN by HTRF assay
pEC50: −log10 of the molar value.
Reported pEC50 values are given for each entry in this list.
measurementType: pEC50

{"compound": "COc1ccc(C(C)(C)C(=O)NCc2cc(F)c(C3CCC(=O)NC3=O)c(Cl)c2)cn1 (stereo not shown)", "measuredValue": 7.15}
{"compound": "CC(C)(O)c1cnc(C(C)(C)C(=O)NCc2cc(Cl)c(C3CCC(=O)NC3=O)c(Cl)c2)nc1 (stereo not shown)", "measuredValue": 6.26}
{"compound": "COc1conc1C(C)(C)C(=O)NCc1cc(Cl)c(C2CCC(=O)NC2=O)c(Cl)c1 (stereo not shown)", "measuredValue": 6.96}
{"compound": "COc1ccc(C(C)(C)C(=O)NCc2cc(Cl)c(C3CCC(=O)NC3=O)c(Cl)c2)nn1 (stereo not shown)", "measuredValue": 7.10}
{"compound": "CC(C)(C(=O)NCc1cc(Cl)c(C2CCC(=O)NC2=O)c(Cl)c1)c1ccc(C(F)F)cn1 (stereo not shown)", "measuredValue": 6.92}
{"compound": "CC(C)(C(=O)NCc1cc(Cl)c(C2CCC(=O)NC2=O)c(Cl)c1)C1CCCO1 (stereo not shown)", "measuredValue": 7.05}
{"compound": "CC(C)(C(=O)NCc1cc(F)c(C2CCC(=O)NC2=O)c(Cl)c1)c1nc2ccccc2o1 (stereo not shown)", "measuredValue": 7.15}
{"compound": "CC(F)(F)c1cnc(C(C)(C)C(=O)NCc2cc(Cl)c(C3CCC(=O)NC3=O)c(Cl)c2)cn1 (stereo not shown)", "measuredValue": 7.00}
{"compound": "CC(C)(C(=O)NCc1ccc(C2CCC(=O)NC2=O)c(Br)c1)c1ccc(F)cc1 (stereo not shown)", "measuredValue": 6.31}
{"compound": "CC(C)(C(=O)NCc1cc(Cl)c(C2CCC(=O)NC2=O)c(Cl)c1)c1ccccc1 (stereo not shown)", "measuredValue": 7.52}
{"compound": "CC(C)(C(=O)NCc1cc(Cl)c(C2CCC(=O)NC2=O)c(Cl)c1)c1ccc(OC(F)(F)F)nn1 (stereo not shown)", "measuredValue": 7.05}
{"compound": "Cc1nc(C(C)(C)C(=O)NCc2cc(Cl)c(C3CCC(=O)NC3=O)c(Cl)c2)oc1C (stereo not shown)", "measuredValue": 7.15}
{"compound": "Cc1cnc(C(C)(C)C(=O)NCc2cc(F)c(C3CCC(=O)NC3=O)c(Cl)c2)nc1 (stereo not shown)", "measuredValue": 6.85}
{"compound": "COc1cnc(C(C)(C)C(=O)NCc2cc(Cl)c(C3CCC(=O)NC3=O)c(Cl)c2)cn1 (stereo not shown)", "measuredValue": 7.05}
{"compound": "Cc1ccc(C(C)(C)C(=O)NCc2cc(Cl)c(C3CCC(=O)NC3=O)c(Cl)c2)nc1 (stereo not shown)", "measuredValue": 6.92}
{"compound": "O=C1CCC(c2c(Cl)cc(CNC(=O)C3(c4ccc(F)cc4)CCOC3)cc2Cl)C(=O)N1 (stereo not shown)", "measuredValue": 7.70}

----------
# targetDesc: NEK7 (Homo sapiens (Human), UniProt Q8TDX7+Q96SW2)
# Sequence (Q8TDX7 whole entry): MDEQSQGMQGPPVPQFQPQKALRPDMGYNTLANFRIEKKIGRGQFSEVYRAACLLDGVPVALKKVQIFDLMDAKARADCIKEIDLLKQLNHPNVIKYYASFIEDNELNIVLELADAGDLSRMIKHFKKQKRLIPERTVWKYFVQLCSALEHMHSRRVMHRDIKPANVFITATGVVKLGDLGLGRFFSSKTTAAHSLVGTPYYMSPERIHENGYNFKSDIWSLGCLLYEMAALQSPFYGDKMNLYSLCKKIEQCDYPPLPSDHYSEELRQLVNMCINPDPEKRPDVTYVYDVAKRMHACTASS
# Sequence (Q96SW2 whole entry): as the sequence (Q96SW2 whole entry) above
# Sequence (Q16531 2-1140 partner): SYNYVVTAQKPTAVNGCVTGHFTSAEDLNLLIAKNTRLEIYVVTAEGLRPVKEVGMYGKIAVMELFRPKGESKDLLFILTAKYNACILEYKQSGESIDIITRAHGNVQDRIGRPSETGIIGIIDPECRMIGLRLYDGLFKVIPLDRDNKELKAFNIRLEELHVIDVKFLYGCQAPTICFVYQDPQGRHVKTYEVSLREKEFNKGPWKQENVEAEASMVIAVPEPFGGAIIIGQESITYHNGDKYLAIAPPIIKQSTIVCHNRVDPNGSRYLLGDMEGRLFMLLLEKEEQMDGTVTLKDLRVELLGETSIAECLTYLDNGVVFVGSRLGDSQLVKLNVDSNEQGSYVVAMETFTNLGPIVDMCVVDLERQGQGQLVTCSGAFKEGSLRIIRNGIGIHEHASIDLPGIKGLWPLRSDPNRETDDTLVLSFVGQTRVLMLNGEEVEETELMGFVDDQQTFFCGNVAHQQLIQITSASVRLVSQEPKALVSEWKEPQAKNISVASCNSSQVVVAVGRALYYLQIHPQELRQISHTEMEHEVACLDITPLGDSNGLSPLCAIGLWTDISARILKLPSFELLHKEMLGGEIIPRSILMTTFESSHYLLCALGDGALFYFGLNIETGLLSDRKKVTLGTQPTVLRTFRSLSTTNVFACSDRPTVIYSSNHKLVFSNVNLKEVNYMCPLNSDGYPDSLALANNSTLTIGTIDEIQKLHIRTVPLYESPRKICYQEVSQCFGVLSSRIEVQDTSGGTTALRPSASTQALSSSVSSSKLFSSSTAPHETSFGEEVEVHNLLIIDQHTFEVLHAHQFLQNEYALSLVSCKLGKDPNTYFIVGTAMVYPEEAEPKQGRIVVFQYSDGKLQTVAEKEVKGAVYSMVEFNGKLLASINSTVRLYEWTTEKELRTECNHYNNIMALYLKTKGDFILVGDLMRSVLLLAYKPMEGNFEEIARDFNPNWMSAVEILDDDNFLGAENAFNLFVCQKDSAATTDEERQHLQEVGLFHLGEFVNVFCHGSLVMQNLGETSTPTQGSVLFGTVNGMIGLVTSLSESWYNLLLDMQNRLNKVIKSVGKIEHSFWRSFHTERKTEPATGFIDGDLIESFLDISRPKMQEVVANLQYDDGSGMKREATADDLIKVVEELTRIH
# testMethodNotes: NEK7 NanoBiT degradation assay in Cal51 NEK7 NanoBiT cell line
# Assay type: cell-based
# particulars: Cal51 NEK7 NanoBiT cells, 24 hours; read-out: NEK7 NanoBiT DC50
// values below are reported log10 DC50
measurementType: log10 DC50 (log10 of the value in nM)

{"compound": "CC(C)(C(=O)NCc1cc(Cl)c(C2CCC(=O)NC2=O)c(Cl)c1)c1cnc(OC(F)F)cn1 (centres unmarked) [Compound 257]", "log10 DC50": 0.00}
{"compound": "CC(C)(C(=O)NCc1cc(Cl)c(C2CCC(=O)NC2=O)c(Cl)c1)c1cncs1 (centres unmarked) [Compound 114]", "log10 DC50": 1.72}
{"compound": "COc1cnc(C(C)(C)C(=O)NCc2cc(Cl)c(C3CCC(=O)NC3=O)c(Cl)c2)nc1 (centres unmarked) [Compound 189]", "log10 DC50": 0.60}
{"compound": "Cc1cnc(C(C)(C)C(=O)NCc2cc(Cl)c(C3CCC(=O)NC3=O)c(Cl)c2)nc1 (centres unmarked) [Compound 14]", "log10 DC50": 0.95}
{"compound": "CC(C)(C(=O)NCc1cc(Cl)c(C2CCC(=O)NC2=O)c(Cl)c1)c1ccc(C(N)=O)cc1F (centres unmarked) [Compound 51]", "log10 DC50": 0.00}
{"compound": "O=C1CCC(c2c(Cl)cc(CNC(=O)C3(c4ccncc4)CCC3)cc2Cl)C(=O)N1 (centres unmarked) [Compound 144]", "log10 DC50": 0.78}
{"compound": "CC(C)(C(=O)NCc1cc(Cl)c(C2CCC(=O)NC2=O)c(Cl)c1)c1ccc2ncoc2c1 (centres unmarked) [Compound 10]", "log10 DC50": 0.00}
{"compound": "CC(C)(O)c1ccc(C(C)(C)C(=O)NCc2cc(Cl)c(C3CCC(=O)NC3=O)c(Cl)c2)nn1 (centres unmarked) [Compound 203]", "log10 DC50": 0.60}

----------
# targetDesc: NEK7 (Homo sapiens (Human), UniProt Q8TDX7+Q96SW2)
# testMethodNotes: NEK7 NanoBiT degradation assay in Cal51 NEK7 NanoBiT cell line
# Type: cell-based
# particulars: CAL-51; NEK7 degradation, Cal51 NEK7 NanoBiT cells, 24 hours; read-out: NanoBiT Dmax
Dmax: recorded values

{"molecule": "CC(C)(C(=O)NCc1cc(Cl)c([C@H]2CCC(=O)NC2=O)c(Cl)c1)c1ncc(C#N)cn1 (single isomer, unassigned)", "Dmax": "> 75%"}
{"molecule": "CCOc1cnc(C(C)(C)C(=O)NCc2cc(Cl)c(C3CCC(=O)NC3=O)c(Cl)c2)cn1 (stereo not shown)", "Dmax": "> 75%"}
{"molecule": "Cc1conc1C(C)(C)C(=O)NCc1cc(Cl)c(C2CCC(=O)NC2=O)c(Cl)c1 (stereo not shown)", "Dmax": "> 75%"}
{"molecule": "CC(C)(C(=O)NCc1ccc(C2CCC(=O)NC2=O)c(Cl)c1)c1ccc(S(N)(=O)=O)cc1 (stereo not shown)", "Dmax": "50 to 75%"}
{"molecule": "CC(C)(C(=O)NCc1cc(Cl)c(C2CCC(=O)NC2=O)c(Cl)c1)c1ncc(OC(F)(F)F)cn1 (stereo not shown)", "Dmax": "> 75%"}
{"molecule": "CC(C)(C(=O)NCc1cc(Cl)c(C2CCC(=O)NC2=O)c(Cl)c1)c1nc(C2CC2)no1 (stereo not shown)", "Dmax": "50 to 75%"}
{"molecule": "CC(C)(C(=O)NCc1cc(Cl)c(C2CCC(=O)NC2=O)c(Cl)c1)c1ncc(C#N)cn1 (stereo not shown)", "Dmax": "> 75%"}

----------
# targetDesc: NEK7 (Homo sapiens (Human), UniProt Q8TDX7+Q96SW2)
# testMethodNotes: NEK7 NanoBiT degradation assay in Cal51 NEK7 NanoBiT cell line
# Format: cell-based
# particulars: CAL-51; Cal51 NEK7 NanoBiT cells, 24 hours; read-out: NEK7 NanoBiT Dmax
measurementType: Dmax

{"molecule": "CC(C)(C(=O)NCc1cc(Cl)c(C2CCC(=O)NC2=O)c(Cl)c1)c1ccncn1 (centres unmarked)", "measuredValue": "84%"}
{"molecule": "CN1Cc2ccccc2CC1C(=O)NCc1cc(Cl)c(C2CCC(=O)NC2=O)c(Cl)c1 (centres unmarked)", "measuredValue": "66%"}
{"molecule": "O=C1CCC(c2c(Cl)cc(CNC(=O)C3(c4ccncc4)CCCC3)cc2Cl)C(=O)N1 (centres unmarked)", "measuredValue": "92%"}
{"molecule": "CC(C)(C(=O)NCc1cc(Cl)c(C2CCC(=O)NC2=O)c(Cl)c1)c1nocc1C(F)(F)F (centres unmarked)", "measuredValue": "91%"}
{"molecule": "Cc1cc(C(C)(C)C(=O)NCc2cc(Cl)c(C3CCC(=O)NC3=O)c(Cl)c2)cc(=O)n1C (centres unmarked)", "measuredValue": "92%"}
{"molecule": "CC(C)(C(=O)NCc1cc(Cl)c(C2CCC(=O)NC2=O)c(Cl)c1)c1nc(C(F)F)no1 (centres unmarked)", "measuredValue": "72%"}
{"molecule": "CC(C)(C(=O)NCc1cc(Cl)c(C2CCC(=O)NC2=O)c(Cl)c1)C1CCCC1 (centres unmarked)", "measuredValue": "78%"}
{"molecule": "CC(C)(C(=O)NCc1cc(Cl)c(C2CCC(=O)NC2=O)c(Cl)c1)c1cnc(OC(F)F)cn1 (centres unmarked)", "measuredValue": "95%"}
